Biological target: T1, TNFR1 (Homo sapiens, UniProt P19438)
T1 chain: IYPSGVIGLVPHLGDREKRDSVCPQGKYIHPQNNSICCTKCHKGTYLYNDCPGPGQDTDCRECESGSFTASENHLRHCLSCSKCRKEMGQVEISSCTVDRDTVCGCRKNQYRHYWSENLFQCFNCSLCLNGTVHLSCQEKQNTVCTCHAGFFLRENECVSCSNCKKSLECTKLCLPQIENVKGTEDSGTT
Test: yeast display SC50
Endpoint label: apparent Kd (screen) (nM)

Some entries whose results are on file:
1. K73A (designed binder) SMEEEVEKAAKEYEKKKKEAIEKHLEKLKAKDKEAAERFLKELEEAAKEYAKDEAKTMSEEEAKRRAKKYKEAVLLSELSEEEQKEIKEAEEKLVRTILKYVEEAAK	12.5
2. K107N (designed binder) SMEEEVEKAAKEYEKKKKEAIEKHLEKLKAKDKEAAERFLKELEEAAKEYAKDEAKTMSEEEAKRRAKKYKEKVLLSELSEEEQKEIKEAEEKLVRTILKYVEEAAN	1.54

A. K48I (designed binder) SMEEEVEKAAKEYEKKKKEAIEKHLEKLKAKDKEAAERFLKELEEAAIEYAKDEAKTMSEEEAKRRAKKYKEKVLLSELSEEEQKEIKEAEEKLVRTILKYVEEAAK
B. L75K (designed binder) SMEEEVEKAAKEYEKKKKEAIEKHLEKLKAKDKEAAERFLKELEEAAKEYAKDEAKTMSEEEAKRRAKKYKEKVKLSELSEEEQKEIKEAEEKLVRTILKYVEEAAK
Ask: Lower apparent Kd (screen): A or B ? Mark your selection by writing its label.
Reply: A
